Ref: the EternaBench riboswitch data

Tested on: MS2 coat protein
procedure.summary: apparent Kd, MS2 coat protein; higher = weaker binding; RNA-MaP array
run.parameters: ligand present: flavin mononucleotide; designed as: OFF switch for flavin mononucleotide
Assignment: determine reported apparent Kd for the given sequences.
Numbers only; they are read as nM.

Input line: Any idea what its apparent Kd is? The sequence is ACAUGAGGAUCACCCAUGUACAUUUAUACUGGGAGACUAUCGUAGGAUAUAUGAACAAGCAUUCUAUAGAAGGACGAAAAGAUC
Output line: 40.4

Input line: Any idea what its apparent Kd is? The sequence is UAGGAUAACACAGGAUAUACCCUUGUCGUCGGUUCUAAAUUACAUGAGGAUCACCCAUGUCUAAGGUAGAAGGGUGUUUGCGGU
Output line: 29.6

Input line: Any idea what its apparent Kd is? The sequence is GUAUACAUGAGGAUCACCCAUGUCGUUCUCUUGAGAUGAACAGAGGAUAUGUGAGUAAUAGCGUGACAGAAGGCUGGACAUGAU
Output line: 16.9

Input line: Any idea what its apparent Kd is? The sequence is UCUAUGCUAACAGGAUAUCGCGGCACGAUGCUUCGAGAAGGGUUAACAUGAGGAUCACCCAUGUGUGUCCUACGGAGACCGCGC
Output line: 11.8

###

Test system: MS2 coat protein
procedure.summary: apparent Kd, MS2 coat protein; higher = weaker binding; RNA-MaP array; FMN 200 µM where present
run.parameters: ligand present: flavin mononucleotide; designed as: OFF switch for flavin mononucleotide
readout.kind: apparent Kd (nM)
Numbers only; they are read as nM.

Input line: Recall the recorded apparent Kd for AGUCGGAGCAGAGGAUAUACAUGAGGAUCACCCAUGUAAAUGGAAUAAGACUGGAAACAGUCAAUGUAGAAGGCUGCUCCGACA with MS2 coat protein and state it.
Output line: 673

Input line: Recall the recorded apparent Kd for CCACGGUAUGUAGGAUAUGCAUAGCAUUGCUAUGCAGAAGGACAUGAGGAUCACCCAUGUAUGUAUUCCAUACUAAUCCCGUGG with MS2 coat protein and state it.
Output line: 5.69

Input line: Recall the recorded apparent Kd for GAAAACGCAGAGGAUAUUUCAGAUCAAAGCUGCAAAGAAGGCUGCACAUGAGGAUCACCCAUGUGGUCUUUAAA with MS2 coat protein and state it.
Output line: 202

Input line: Recall the recorded apparent Kd for GUCAGCUCGUGAGGAUAUACAACACUGCUUCGGCAGUGUAUUAAGAUCACAUGAGGAUCACCCAUGUAGAAGGCACGAUCUGAU with MS2 coat protein and state it.
Output line: 220

Input line: Recall the recorded apparent Kd for ACUCGGAGCUGGCGACAGAAGACAUGAGGAUCACCCAUGUAGAGAAGGAGCCCUGGGACCGGUGGCUAGGAUAUUUACAUCGGU with MS2 coat protein and state it.
Output line: 12.3

Input line: Recall the recorded apparent Kd for GUCAGCUCGUGAGGAUAUACAACACUGCUUCGGCAGUGUAUUAAGAUAACAUGAGGAUCACCCAUGUAGAAGGCACGAGCUGAU with MS2 coat protein and state it.
Output line: 8.48

Input line: Recall the recorded apparent Kd for UAUAUAUAGUAAGGAUAUAUAUUUUUUUUUUAAAUAGAAGGUACAGACAUGAGGAUCACCCAUGUUAUAAUAUGGACAUGUGGA with MS2 coat protein and state it.
Output line: 136

Input line: Recall the recorded apparent Kd for AACCUGGUAAAUAAACUCAAUUACAUGAGGAUCACCCAUGUAUAGGAUAUGCAGUGGAAUACACUGCAGAAGGAUACAUCCAGG with MS2 coat protein and state it.
Output line: 60.9

Input line: Recall the recorded apparent Kd for AACAGUAGAGGAUAUACAUGAGGAUCACCCAUGUGAUAAUUACGUGGCGUACCACGAUGUAGAAGGCUACUGGA with MS2 coat protein and state it.
Output line: 36.2

Input line: Recall the recorded apparent Kd for UUUAUAUAGUAAGGAUAUGUAUUAAUUUUAUAGACAGAAGGUACUGACAUGAGGAUCACCCAUGUUUUAGUGUGGGCAUGUAGU with MS2 coat protein and state it.
Output line: 549

Input line: Recall the recorded apparent Kd for GUAUCGUGAGGAUAUCAUGAUUGACUUAGUUUAUGUCAGCGUGAGAAGGCACAUGAGGAUCACCCAUGUGAUUA with MS2 coat protein and state it.
Output line: 54.9

Input line: Recall the recorded apparent Kd for CAUCCACAUGAGGAUCACCCAUGUGAGGAUAUGAUACUAUGUACUUCGGUACAUAGUAUCAGAAGGCACAGGUG with MS2 coat protein and state it.
Output line: 37.4

Input line: Recall the recorded apparent Kd for GGGCCCGGAGGAUAUACAAUUUUGGGCCGAAAGGCCCGGGUACAUGAGGAUCACCCAUGUAGAAGGCCGGGUUU with MS2 coat protein and state it.
Output line: 311

Input line: Recall the recorded apparent Kd for CAUUAAUUCAUUAUAGUUAUUAUACAGGAUAUGUUACAUGAGGAUCACCCAUGUAUUCAUGGUAAACAGAAGGGUAAUACUAGU with MS2 coat protein and state it.
Output line: 15.8

Input line: Recall the recorded apparent Kd for GGGCCGGUGGAGAAGGAGCUUGCAAAAUGCAUGCUAGGAUAUCCACAUGAGGAUCACCCAUGUGGGAAUAUCUGGUUUUCACAG with MS2 coat protein and state it.
Output line: 5.05

###

Assignment: determine reported apparent Kd for the given sequences.
System: MS2 coat protein
procedure.summary: apparent Kd, MS2 coat protein; higher = weaker binding; RNA-MaP array; FMN 200 µM where present
run.parameters: designed as: ON switch for flavin mononucleotide; no ligand
Write the numeric value and follow it with the unit.

Input line: Any idea what its apparent Kd is? The sequence is UAAGUCUAAUGAGGAUAUCGUUAUCAAAGAUAAUGAGAAGGCAUACAAUCAUGAGGACAUGAGGAUCACCCAUGUUGUGACCAU
Output line: 40.9 nM

Input line: Any idea what its apparent Kd is? The sequence is ACAUGCAUAGCGAUAUGAUCGAGAGAUCAUGUCGAAAAUUUUAGAAGGACAUGAGGAUCACCCAUGUAGGAUAUGGGAGCAUGA
Output line: 62.6 nM

Input line: Any idea what its apparent Kd is? The sequence is UGGUACAUCGGAGGAUAUCGUGUGUAAACAUGAGGAUCACCCAUGUCGUACGAGAGUACGUAGAUCGAGAAGGCCGAUGUACCU
Output line: 17.2 nM

Input line: Any idea what its apparent Kd is? The sequence is ACAUGCAUAGCGAUAUGAUCGAGAGAUCAUGUCGCUAAAGUUAGAAGGACAUGAGGAUCACCCAUGUAGGAUAUGGGUGCAUGA
Output line: 641 nM

###

Tested on: MS2 coat protein
procedure.summary: apparent Kd, MS2 coat protein; higher = weaker binding; RNA-MaP array; FMN 200 µM where present
run.parameters: designed as: OFF switch for flavin mononucleotide; no ligand
Decide using apparent Kd: a value greater than or equal to 20 nM is met, a smaller one is not met.

Input line: Could you verify whether the entry UACAUGAGGAUCACCCAUGUUUUGUCGUGUAUGGUAUUUAUCUAGGAUAUCAAUUGAGUUAUUUAUGAGAAGGAGAAUAUUAAU shows apparent Kd of no less than 20 nM?
Output line: met

Input line: Could you verify whether the entry GGAUAGGGCAGAGGAUAUACGUGCUAGAGAUACUAGCAAAAUUUCCUCACAUGAGGAUCACCCAUGUAGAAGGCUGUCCUAUCG shows apparent Kd of no less than 20 nM?
Output line: not met

Input line: Could you verify whether the entry CCUAUGUGAGGAUAUCACUGGUCUGCUCACUAGAUGAUCAGUGAGAAGGCACAUGAGGAUCACCCAUGUCAGUG shows apparent Kd of no less than 20 nM?
Output line: met

Input line: Could you verify whether the entry GUAGAGUAGUGAGGAUAUACGAGUACGAUAGUACGGCGAUCCAAUAAUACAUGAGGAUCACCCAUGUAGAAGGCACUUCUCUAC shows apparent Kd of no less than 20 nM?
Output line: not met

Input line: Could you verify whether the entry CAUCCACAUGAGGAUCACCCAUGUGAGGAUAUGAUACUAUGUACUUCGGUACAUAGUAUCAGAAGGCACAGGUG shows apparent Kd of no less than 20 nM?
Output line: met

Input line: Could you verify whether the entry AAAUUGGUAGAGGAUAUCGGAUAGGAUUUAUUGCGAGAAGGCUGCACAUGAGGAUCACCCAUGUUCUGUUGGGA shows apparent Kd of no less than 20 nM?
Output line: met

Input line: Could you verify whether the entry GGAUUACAUGAGGAUCACCCAUGUGAGGAUAUCGAUGUCCUCAAUCAAGUGCGGGACUCGAGAAGGCACUUGGA shows apparent Kd of no less than 20 nM?
Output line: met

Input line: Could you verify whether the entry CGACAGUCAGGAUAUGCAAAAAAAAAAAAAAAAAAAAAAAAGCAGAAGGGACAUGAGGAUCACCCAUGUCGUCG shows apparent Kd of no less than 20 nM?
Output line: met

Input line: Could you verify whether the entry AAAUAACAUGUAGGAUAUGCAGCAUUAACCAUCGCAGAAGGACAUGAGGAUCACCCAUGUGGCGAUACAAUGCAAUAAGGGAAU shows apparent Kd of no less than 20 nM?
Output line: not met

Input line: Could you verify whether the entry GUGGAGUAAGGAUAUACAUGAGGAUCACCCAUGUGAGGGUAUGAGAAGGGAAUGAGAGGUAGAAGGUACGAGGG shows apparent Kd of no less than 20 nM?
Output line: met

Input line: Could you verify whether the entry CUGUUAUAGGUCCAGAAUUACAACAUGAGGAUCACCCAUGUGCAGGAUAUCGGGUUGAUAGGCGCCGAGAAGGGUAUAGUCACG shows apparent Kd of no less than 20 nM?
Output line: met

Input line: Could you verify whether the entry GGGCCCGGUGUGAGGAUAUUGGGUCUGAAAGGGCUCGAGAAGGCACAUGAGGAUCACCCAUGUAAGCCGGGCCC shows apparent Kd of no less than 20 nM?
Output line: not met

Input line: Could you verify whether the entry UCCUUGUCCUGAGGAUAUCCGCGGUUCCCAAAAGGAGAAGGCAGGACAUGAGGAUCACCCAUGUACCCAGAAAACGUGCAGAUU shows apparent Kd of no less than 20 nM?
Output line: not met

Input line: Could you verify whether the entry UGUGUGAGACAGGAUAUGCCGGAUAUAUUACUGGUAGAAGGGUCUACAUGAGGAUCACCCAUGUGGCCGGCCGG shows apparent Kd of no less than 20 nM?
Output line: not met

Input line: Could you verify whether the entry AAACAUGUCCGAGGAUAUCUGGAAACAUUUUCAAGAGAAGGCGGACAUGAGGAUCACCCAUGUCUCUCCUCAUCAACUACAAAC shows apparent Kd of no less than 20 nM?
Output line: not met

Input line: Could you verify whether the entry UGAUAACAUGUAGGAUAUCCAGCAUUGACCAUCGGAGAAGGACAUGAGGAUCACCCAUGUACCGAUACAAUGGAAUAAGGGAAU shows apparent Kd of no less than 20 nM?
Output line: not met

Input line: Could you verify whether the entry UUCAUGUGAGGAUAUAGUACUUCUUCUAUUAUUAUUGAGUACUAGAAGGCACAUGAGGAUCACCCAUGUAGUAC shows apparent Kd of no less than 20 nM?
Output line: met

Input line: Could you verify whether the entry CCUAUGUGAGGAUAUCACUGGUCUUUUCAUUAGAUGAUCAGUGAGAAGGCACAUGAGGAUCACCCAUGUCAGUG shows apparent Kd of no less than 20 nM?
Output line: met

Input line: Could you verify whether the entry CCUGAGUGUCUAGGAUAUGCAUACCCGAGCUUUGCAGAAGGAGACAUGAGGAUCACCCAUGUGGACUUGGCAGGUCUCGCACCA shows apparent Kd of no less than 20 nM?
Output line: not met

Input line: Could you verify whether the entry UAUAUACAUGAGGAUCACCCAUGUAAGGAUAUGCAUUAUUAUUAUUAUUAUUAUUAUAGCAGAAGGUACAAUAU shows apparent Kd of no less than 20 nM?
Output line: met

Input line: Could you verify whether the entry ACGCUUUGGGAGAAGGUACUUUAAAAUUUUUCCACAUGAGGAUCACCCAUGUAAGGAUAUCCCAUCGUUAAAUAUUCUACAGCA shows apparent Kd of no less than 20 nM?
Output line: not met

Input line: Could you verify whether the entry ACAUGAGGAUCACCCAUGUACAUGGGUUUAAUUGUGUGUUACGAGGAUAUGUAUUUGAAUUUACAACAGAAGGUGUAUUACUGU shows apparent Kd of no less than 20 nM?
Output line: met

Input line: Could you verify whether the entry GGAUGACAAAGUCAUCCCUGACGGACAUGAGGAUCACCCAUGUAGGAUAUGCUACUCAAAGAGUAGCAGAAGGACAUGUGUCUU shows apparent Kd of no less than 20 nM?
Output line: met

Input line: Could you verify whether the entry GUGUACAGAGGAUAUAUAUGAGCAUGGAAACAUGCAAGAUCACAUGAGGAUCACCCAUGUAGAAGGCUGUACAC shows apparent Kd of no less than 20 nM?
Output line: met

Input line: Could you verify whether the entry CCAUGGCAUGUAGGAUAUGUCUGACAAAGUCAGACAGAAGGACAUGAGGAUCACCCAUGUAAACCGAAAGGAACAUAGCCAUGG shows apparent Kd of no less than 20 nM?
Output line: not met

Input line: Could you verify whether the entry CUAAUUAGUCAGAAGGUGCUGCCGGAAUCAUAGCAAGGAUAUGACAUGAGGAUCACCCAUGUACAGAUCCUACAUAAAAUCAGG shows apparent Kd of no less than 20 nM?
Output line: not met

Input line: Could you verify whether the entry CAGGUCUGAGGAUAUCCAUCUUCAUACAUGAGGAUCACCCAUGUUUACCUUUGGGUUUUUGGAGAAGGCAGUUUUU shows apparent Kd of no less than 20 nM?
Output line: met
